Where do these numbers come from? They come from ChEMBL document CHEMBL3638724.

Parameter pIC50: see the listing below.
target: Androgen receptor (Homo sapiens); experiment: The assay was performed as specified by the manufacturer (Invitrogen, Madison, Wis.). Briefly, 1 ul of 10 mM compound was added to 500 ul of AR screening buffer in a 1.5 ml eppendorf tube to make a 2x10-5M stock. 10-fold serial dilutions of the test compounds were prepared ranging in concentration from 10^-5M to 10-12M. Each dilution was added in triplicate to a black 384-microtiter plate. The test compounds will be diluted 2-fold in the final reaction. 2xAR-Fluormone complex was prepared with 2 nM Flourmone AL Green and 30 nM AR. 25 ul of 2x complex was aliquoted to each reaction well, such that the final reaction volume was 50 ul per well. The plate was sealed with a foil cover and incubated in the dark at room temperature.
Sequence (P10275 whole entry): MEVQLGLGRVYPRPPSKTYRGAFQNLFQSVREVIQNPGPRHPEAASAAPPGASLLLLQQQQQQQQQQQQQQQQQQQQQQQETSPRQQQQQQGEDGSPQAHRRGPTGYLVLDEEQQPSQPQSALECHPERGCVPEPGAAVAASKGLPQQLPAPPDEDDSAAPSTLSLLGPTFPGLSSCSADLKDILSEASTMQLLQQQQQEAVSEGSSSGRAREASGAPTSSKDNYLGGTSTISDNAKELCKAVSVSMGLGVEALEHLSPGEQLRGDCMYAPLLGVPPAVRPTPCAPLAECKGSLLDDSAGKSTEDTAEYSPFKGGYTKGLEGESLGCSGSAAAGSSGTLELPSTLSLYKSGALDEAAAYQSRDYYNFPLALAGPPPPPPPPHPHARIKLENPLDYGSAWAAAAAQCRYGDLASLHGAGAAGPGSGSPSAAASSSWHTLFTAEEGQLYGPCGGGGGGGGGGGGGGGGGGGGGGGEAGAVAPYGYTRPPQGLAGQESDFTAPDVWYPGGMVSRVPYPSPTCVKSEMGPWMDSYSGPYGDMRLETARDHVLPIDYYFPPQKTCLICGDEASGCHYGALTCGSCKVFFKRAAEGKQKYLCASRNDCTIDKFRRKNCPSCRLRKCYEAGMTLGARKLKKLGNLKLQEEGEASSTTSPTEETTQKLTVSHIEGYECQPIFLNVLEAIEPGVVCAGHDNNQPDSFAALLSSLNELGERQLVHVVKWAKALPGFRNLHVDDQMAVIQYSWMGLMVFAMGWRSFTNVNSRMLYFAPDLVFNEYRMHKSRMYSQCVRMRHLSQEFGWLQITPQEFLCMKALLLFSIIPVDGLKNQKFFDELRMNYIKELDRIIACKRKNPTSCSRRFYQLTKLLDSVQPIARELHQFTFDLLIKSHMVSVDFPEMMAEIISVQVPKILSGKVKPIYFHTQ
pIC50: −log10 of the molar value.
property: pIC50

molecule	experimental system	property	value operator	readout value
OC1(C(F)(F)F)CCCc2c1[nH]c1ccc(Cl)c(Cl)c21 (stereo unspecified)	Androgen receptor (Homo sapiens)	pIC50	=	4.40
OC1(C(F)(F)F)CCCc2c1[nH]c1c(Cl)cc(Cl)c(Cl)c21 (stereo unspecified)	Androgen receptor (Homo sapiens)	pIC50	<	5.00
O[C@@]1(C(F)(F)F)CCCc2c1[nH]c1cc(Cl)c(Cl)cc21	Androgen receptor (Homo sapiens)	pIC50	<	6.00
OC1(C(F)(F)F)c2[nH]c3c(Cl)cc(F)cc3c2CCC1C(F)(F)F (stereo unspecified)	Androgen receptor (Homo sapiens)	pIC50	<	5.00
O[C@]1(C(F)(F)F)CCCc2c1[nH]c1cc(Cl)c(Cl)cc21	Androgen receptor (Homo sapiens)	pIC50	=	7.89
OC1(C(F)(F)F)CCCc2c1[nH]c1cc(Cl)c(Cl)cc21 (stereo unspecified)	Androgen receptor (Homo sapiens)	pIC50	=	5.81
Oc1cccc2c1[nH]c1ccc(Cl)c(Cl)c12	Androgen receptor (Homo sapiens)	pIC50	=	7.82
N#Cc1ccc2[nH]c3c(O)cccc3c2c1	Androgen receptor (Homo sapiens)	pIC50	=	5.34
Oc1cccc2c1[nH]c1ccc(Br)cc12	Androgen receptor (Homo sapiens)	pIC50	=	5.85
O[C@]1(C(F)(F)F)CCCc2c1[nH]c1c(Cl)cc(Cl)cc21	Androgen receptor (Homo sapiens)	pIC50	=	7.70
Oc1c(Br)ccc2c1[nH]c1cc(Cl)c(Cl)cc12	Androgen receptor (Homo sapiens)	pIC50	=	7.47
